Assay: Dog pharmacokinetic study (iv and sc, solution vehicles)
Format: in vivo
Conditions: beagle, plasma, 67 ug/kg; dog, intravenous 67 μg/kg, Tables 6A-6C (6A vehicle 0.2 M Tris, pH 8.0)
Where a SMILES comes first, the peptide text is derived from it. [ ]: non-standard residue; d: D form. The star is where a group is joined. ξ: configuration not given here. Ala(6-(2-MePh)pyridin-3-yl) = Cc1ccccc1-c1ccc(C[C@H](N)C(=O)O)cn1; Phe(4-(2-Et-4-HO-Ph)) = CCc1cc(O)ccc1-c1ccc(C[C@H](N)C(=O)O)cc1; ξαMePhe(2-F) = CC(N)(Cc1ccccc1F)C(=O)O; ξαMeP = CC1(C(=O)O)CCCN1; Moc = COC(=O)*
endpoint-name: MRT

Record request: MRT value, item CCc1cc(O)ccc1-c1ccc(C[C@H](NC(=O)[C@H](CC(=O)O)NC(=O)[C@H](CO)NC(=O)[C@@H](NC(=O)C(C)(Cc2ccccc2F)NC(=O)[C@@H](NC(=O)CNC(=O)[C@H](CCC(=O)O)NC(=O)C2(C)CCCN2C(=O)[C@H](Cc2c[nH]cn2)NC(=O)OC)[C@@H](C)O)[C@@H](C)O)C(=O)N[C@@H](Cc2ccc(-c3ccccc3C)nc2)C(N)=O)cc1 (stereo partly shown) [SEQ ID NO: 158] (Moc-H[ξαMeP]EGT[ξαMePhe(2-F)]TSD[Phe(4-(2-Et-4-HO-Ph))][Ala(6-(2-MePh)pyridin-3-yl)]-NH2) 4.9 h

* * *

Assay: Dog pharmacokinetic study (iv and sc, solution vehicles)
Format: in vivo
Conditions: male, beagle, dog, plasma, sc, 67 ug/kg; Table II; vehicle propylene glycol/pH 7.4 phosphate buffer (1:1); read-out: Exposure in dogs (sc@67 μg/kg)
*1 amine or outer side, *2 acyl side, *3 side chain or, on linkers, in order; H or OH if unused. Where a SMILES comes first, the peptide text is derived from it. [ ]: non-standard residue; d: D form. Ala(6-(2-MePh)pyridin-3-yl) = Cc1ccccc1-c1ccc(C[C@H](N)C(=O)O)cn1; Bip(2'-Et-4'-OMe) = CCc1cc(OC)ccc1-c1ccc(C[C@H](N)C(=O)O)cc1; X2 = Cc1ccccc1-c1ncc(C[C@H](N[*:1])C(=O)[*:2])cn1; αMePhe(2-F) = C[C@](N)(Cc1ccccc1F)C(=O)O; Aib = CC(C)(N)C(=O)O
Provide the reported AUC of each item.
Answers are plain numbers, in µM·h.

CCc1cc(OC)ccc1-c1ccc(C[C@H](NC(=O)[C@H](CC(=O)O)NC(=O)[C@H](CO)NC(=O)[C@@H](NC(=O)[C@](C)(Cc2ccccc2F)NC(=O)[C@@H](NC(=O)CNC(=O)[C@H](CCC(=O)O)NC(=O)C(C)(C)NC(=O)[C@@H](N)Cc2c[nH]cn2)[C@@H](C)O)[C@@H](C)O)C(=O)N[C@@H](Cc2cnc(-c3ccccc3C)nc2)C(N)=O)cc1 [SEQ ID NO: 130] (H-H[Aib]EGT[αMePhe(2-F)]TSD[Bip(2'-Et-4'-OMe)][X2]-NH2) | 0.541
CCc1cc(OC)ccc1-c1ccc(C[C@H](NC(=O)[C@H](CC(=O)O)NC(=O)[C@H](CO)NC(=O)[C@@H](NC(=O)[C@](C)(Cc2ccccc2F)NC(=O)[C@@H](NC(=O)CNC(=O)[C@H](Cc2c[nH]cn2)NC(=O)C(C)(C)NC(=O)[C@@H](N)Cc2c[nH]cn2)[C@@H](C)O)[C@@H](C)O)C(=O)N[C@@H](Cc2ccc(-c3ccccc3C)nc2)C(N)=O)cc1 [SEQ ID NO: 150] (H-H[Aib]HGT[αMePhe(2-F)]TSD[Bip(2'-Et-4'-OMe)][Ala(6-(2-MePh)pyridin-3-yl)]-NH2) | 0.979

As a next step, examine the molecule that follows.
Record request: AUC value, item CCc1cc(OC)ccc1-c1ccc(C[C@H](NC(=O)[C@H](CC(=O)O)NC(=O)[C@H](CO)NC(=O)[C@@H](NC(=O)[C@](C)(Cc2ccccc2F)NC(=O)[C@@H](NC(=O)CNC(=O)[C@H](CCC(=O)O)NC(=O)[C@@H](C)NC(=O)[C@@H](N)Cc2c[nH]cn2)[C@@H](C)O)[C@@H](C)O)C(=O)N[C@@H](Cc2ccc(-c3ccccc3C)nc2)C(N)=O)cc1 [SEQ ID NO: 149] (H-H[dA]EGT[αMePhe(2-F)]TSD[Bip(2'-Et-4'-OMe)][Ala(6-(2-MePh)pyridin-3-yl)]-NH2) 0.94

* * *

Test: Dog pharmacokinetic study (iv and sc, solution vehicles)
Type: in vivo
Settings: male, beagle, plasma, 67 ug/kg; dog, intravenous 67 μg/kg, propylene glycol:phosphate buffer (50:50); read-out: VSS
Where a SMILES comes first, the peptide text is derived from it. [ ]: non-standard residue; d: D form. Ala(6-(2-MePh)pyridin-3-yl) = Cc1ccccc1-c1ccc(C[C@H](N)C(=O)O)cn1; Bip(2'-Et-4'-OMe) = CCc1cc(OC)ccc1-c1ccc(C[C@H](N)C(=O)O)cc1; αMePhe(2-F) = C[C@](N)(Cc1ccccc1F)C(=O)O; Aib = CC(C)(N)C(=O)O
endpoint-name: Vd (L/kg)
Answers are plain numbers, in L/kg.

Record request: Vd value, item CCc1cc(OC)ccc1-c1ccc(C[C@H](NC(=O)[C@H](CC(=O)O)NC(=O)[C@H](CO)NC(=O)[C@@H](NC(=O)[C@](C)(Cc2ccccc2F)NC(=O)[C@@H](NC(=O)CNC(=O)[C@H](CCC(=O)O)NC(=O)C(C)(C)NC(=O)[C@@H](N)Cc2c[nH]cn2)[C@@H](C)O)[C@@H](C)O)C(=O)N[C@@H](Cc2ccc(-c3ccccc3C)nc2)C(N)=O)cc1 [SEQ ID NO: 9] (H-H[Aib]EGT[αMePhe(2-F)]TSD[Bip(2'-Et-4'-OMe)][Ala(6-(2-MePh)pyridin-3-yl)]-NH2) 0.1

* * *

Test: Dog pharmacokinetic study (iv and sc, solution vehicles)
Type: in vivo
Conditions: male, beagle, dog, plasma, sc, 67 ug/kg; Table II; vehicle propylene glycol/pH 7.4 phosphate buffer (1:1); read-out: Exposure in dogs (sc@67 μg/kg)
Where a SMILES comes first, the peptide text is derived from it. [ ]: non-standard residue; d: D form. ξ: configuration not given here. Ala(6-(2-MePh)pyridin-3-yl) = Cc1ccccc1-c1ccc(C[C@H](N)C(=O)O)cn1; Bip(2'-Et-4'-OMe) = CCc1cc(OC)ccc1-c1ccc(C[C@H](N)C(=O)O)cc1; Bip(2'-Me) = Cc1ccccc1-c1ccc(C[C@H](N)C(=O)O)cc1; αMePhe(2-F) = C[C@](N)(Cc1ccccc1F)C(=O)O; ξαMePhe(2-F) = CC(N)(Cc1ccccc1F)C(=O)O; Thr(3ξ) = CC(O)[C@H](N)C(=O)O; αMeP = C[C@@]1(C(=O)O)CCCN1; dNMeA = CN[C@H](C)C(=O)O; ξαMeP = CC1(C(=O)O)CCCN1; Aib = CC(C)(N)C(=O)O
Provide the reported AUC of each item.
Answers are plain numbers, in µM·h.

Some solved cases for reference:
CCc1cc(OC)ccc1-c1ccc(C[C@H](NC(=O)[C@H](CC(=O)O)NC(=O)[C@H](CO)NC(=O)[C@@H](NC(=O)C(C)(Cc2ccccc2F)NC(=O)[C@@H](NC(=O)CNC(=O)[C@H](CCC(=O)O)NC(=O)C2(C)CCCN2C(=O)[C@@H](N)Cc2c[nH]cn2)[C@@H](C)O)[C@@H](C)O)C(=O)N[C@@H](Cc2ccc(-c3ccccc3C)nc2)C(N)=O)cc1 (stereo partly shown) [SEQ ID NO: 118] (H-H[ξαMeP]EGT[ξαMePhe(2-F)]TSD[Bip(2'-Et-4'-OMe)][Ala(6-(2-MePh)pyridin-3-yl)]-NH2) | 4.02
CCc1cc(OC)ccc1-c1ccc(C[C@H](NC(=O)[C@H](CC(=O)O)NC(=O)[C@H](Cc2c[nH]cn2)NC(=O)[C@@H](NC(=O)[C@](C)(Cc2ccccc2F)NC(=O)[C@@H](NC(=O)CNC(=O)[C@H](CCC(=O)O)NC(=O)[C@]2(C)CCCN2C(=O)[C@@H](N)Cc2c[nH]cn2)[C@@H](C)O)[C@@H](C)O)C(=O)N[C@@H](Cc2ccc(-c3ccccc3C)nc2)C(N)=O)cc1 [SEQ ID NO: 120] (H-H[αMeP]EGT[αMePhe(2-F)]THD[Bip(2'-Et-4'-OMe)][Ala(6-(2-MePh)pyridin-3-yl)]-NH2) | 1.12
CCc1cc(OC)ccc1-c1ccc(C[C@H](NC(=O)[C@H](CC(=O)O)NC(=O)[C@H](CO)NC(=O)[C@@H](NC(=O)[C@](C)(Cc2ccccc2F)NC(=O)[C@@H](NC(=O)CNC(=O)[C@H](CCC(=O)O)NC(=O)[C@@H](C)N(C)C(=O)[C@@H](N)Cc2c[nH]cn2)[C@@H](C)O)[C@@H](C)O)C(=O)N[C@@H](Cc2ccc(-c3ccccc3C)nc2)C(N)=O)cc1 [SEQ ID NO: 119] (H-H[dNMeA]EGT[αMePhe(2-F)]TSD[Bip(2'-Et-4'-OMe)][Ala(6-(2-MePh)pyridin-3-yl)]-NH2) | 1.26

As a next step, examine the compound that follows.
Record request: AUC value, item CCc1cc(OC)ccc1-c1ccc(C[C@H](NC(=O)[C@H](CC(=O)O)NC(=O)[C@H](CO)NC(=O)[C@@H](NC(=O)[C@](C)(Cc2ccccc2F)NC(=O)[C@@H](NC(=O)CNC(=O)[C@H](CCC(=O)O)NC(=O)C(C)(C)NC(=O)[C@@H](N)Cc2c[nH]cn2)C(C)O)C(C)O)C(=O)N[C@@H](Cc2ccc(-c3ccccc3C)cc2)C(N)=O)cc1 (stereo partly shown) [Compound I, reference compound] (H-H[Aib]EG[Thr(3ξ)][αMePhe(2-F)][Thr(3ξ)]SD[Bip(2'-Et-4'-OMe)][Bip(2'-Me)]-NH2) 0.089
